- Read-out: Vascular cell adhesion molecule 1 (VCAM1), VCAM1 (gene 7412)
- testMethodNotes: BSK_4H_VCAM1: BioMAP Diversity Plus: 4H Assay for Vascular cell adhesion molecule 1 (VCAM1) Biomarker Activity (AID 2283033)
- conditionsUsed: primary human endothelial cells (HUVEC); actives raise or lower the signal
Active and inactive are the calls of the source. Rule for the calls: active = hit-call score of the fitted dose curve at least 0.9, where 1 is the maximum; inactive = score below 0.9.
quantityName: AC50

Worked examples follow.
molecule	readoutValue
c1ccc(C[n+]2cccc3ccccc32)cc1	inactive
CCCCOC(=O)CC(CC(=O)OCCCC)(OC(C)=O)C(=O)OCCCC	inactive
CCN(CC)C(=O)c1cc(S(=O)(=O)Cc2ccccc2)c(N2CCC(c3ccccc3)CC2)cc1N(CC)CCN(C)C	18.3 µM (active)
CCN(Cc1cccc(S(=O)(=O)O)c1)c1ccc(C(=C2C=CC(=[N+](CC)Cc3cccc(S(=O)(=O)O)c3)C=C2)c2ccccc2S(=O)(=O)[O-])cc1	inactive
CN(C)C(=O)C1(N2CCCCC2)CCN(CC[C@@]2(c3ccc(Cl)c(Cl)c3)CN(C(=O)c3ccccc3)CCO2)CC1	30.8 µM (active)
CC(C)(c1cc(Br)c(O)c(Br)c1)c1cc(Br)c(O)c(Br)c1	29.6 µM (active)
NCc1cccc(C2CCN(C(=O)c3ccc(C#Cc4ccccc4F)o3)CC2)c1	26.2 µM (active)
Cc1cc(F)ccc1-c1cc(N2CC[C@@H](O)[C@H]2CO)ncc1N(C)C(=O)C(C)(C)c1cc(C(F)(F)F)cc(C(F)(F)F)c1	11.2 µM (active)
O=C1O[C@H]([C@@H](O)CO)C(O)=C1O	inactive
CO[C@H]1/C=C/O[C@@]2(C)Oc3c(C)c(O)c4c(O)c(c(/C=N/N5CCN(C)CC5)c(O)c4c3C2=O)NC(=O)/C(C)=C\C=C\[C@H](C)[C@H](O)[C@@H](C)[C@@H](O)[C@@H](C)[C@H](OC(C)=O)[C@@H]1C	inactive

Answer for every listed entry: what is its AC50? The entries follow.
1. O=c1ccc2ccccc2o1
2. Cc1occc1C(=O)Nc1ccc(C(=O)N2CCC(F)(F)/C(=C\C(=O)N3CCC(N4CCCCC4)CC3)c3ccccc32)cc1
3. COc1cc(C(=O)NC2CCN(C)CC2)ccc1Nc1ncc2c(n1)N(C1CCCC1)CC(F)(F)C(=O)N2C

["inactive", "9.44 µM (active)", "7.23 µM (active)"]

For each of the molecules below, state AC50.
1. Cc1oc2c(NC(=O)c3c(Cl)cccc3Cl)cccc2c1C(C)(C)O
2. O=C1c2ccccc2C(=O)N1CCc1noc(-c2ccc(CN3CCCCCC3)s2)n1

inactive
inactive

----------
- testMethodNotes: Tanguay_ZF_120hpf_NC_legacy: (Legacy) Oregon State University Tanguay Lab 120 Hour Post-fertilization zebrafish Assay for Notochord and Tail Malformation (AID 2283656)
- Protocol: Tanguay_ZF_120hpf_legacy is a whole embryo, multiplexed endpoint assay using zebrafish larvae exposed for 120 hours post fertilization on a 96-well plate.Tanguay_ZF_120hpf_NC_legacy is one of one assay component(s) measured or calculated from the Tanguay_ZF_120hpf_legacy assay. […] This assay endpoint, Tanguay_ZF_120hpf_NC_legacy, was analyzed in the positive analysis fitting direction relative to DMSO as the negative control and baseline of activity. […]
Inconclusive results are not listed. Active and inactive are the calls of the source. Rule for the calls: active = hit-call score of the fitted dose curve at least 0.9, where 1 is the maximum; inconclusive = response in the unintended direction; inactive = score below 0.9.
Pick one: active, inactive

Record lookup: outcome of this test for CC1(C)NC(=O)N(c2ccc([N+](=O)[O-])c(C(F)(F)F)c2)C1=O ?
inactive

Field entry: CN1C(=O)CC[C@H]1c1cccnc1
inactive

Can you handle Oc1ccccc1 next?
inactive

Another: Clc1cc(Cl)c2c(c1)N=C1CCCCCN1C2
inactive

Repeat with CCCCCCCCOC(=O)c1cc(O)c(O)c(O)c1
inactive

Then COc1cc(C(=O)NC2CCN(C)CC2)ccc1Nc1ncc2c(n1)N(C1CCCC1)CC(F)(F)C(=O)N2C ?
active

Then Cc1c2ccccc2c(C)c2c1ccc1ccccc12 ?
inactive

// query: O=c1[nH]sc2ccccc12
inactive
